Study Target: T1, HER2ECDHis (human, UniProt P04626 23-653, biotinylated in the cross-block ELISA (sites not given))
T1 construct: range 1-653; expressed in HEK-293F; also called soluble HER2; biotinylated HER2ECDHis
Assay Summary: ELISA; competitor 127
Assay Endpoint: % binding vs no competitor (%)
Note: unit % is implicit; provide only the numeric part.

HuMab 159 (antibody, V domains shown, also called TH1014-159; PC1014-159) VH: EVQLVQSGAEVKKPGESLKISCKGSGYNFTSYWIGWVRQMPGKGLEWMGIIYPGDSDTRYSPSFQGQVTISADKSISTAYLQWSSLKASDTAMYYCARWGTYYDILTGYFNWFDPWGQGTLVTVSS VL: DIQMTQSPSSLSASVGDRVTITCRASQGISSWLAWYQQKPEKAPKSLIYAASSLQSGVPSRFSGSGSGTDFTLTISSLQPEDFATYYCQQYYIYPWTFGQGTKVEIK : 15

We next turn to a different binder, shown below.
Exercise: // query % binding vs no competitor value for entry HuMab 153 (antibody, V domains shown) VH: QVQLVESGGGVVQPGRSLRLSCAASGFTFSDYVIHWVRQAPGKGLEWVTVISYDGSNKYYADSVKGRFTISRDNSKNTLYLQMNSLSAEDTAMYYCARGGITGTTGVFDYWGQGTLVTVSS VL: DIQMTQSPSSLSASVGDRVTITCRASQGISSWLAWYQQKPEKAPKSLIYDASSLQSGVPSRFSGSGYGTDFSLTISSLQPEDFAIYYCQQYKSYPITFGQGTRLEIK
Solution: 27
